Would you mind telling me the reported protein stability index of each entry?
PROTOCOL: protein stability index of a GFP-peptide fusion (yeast GPS) (PSI 1-4); higher = more stable; sorted into four equal gates, so the index is relative within each strain
CONDITION_LABEL: ubr1∆

// protein stability index lookup, key: MALNKVLITDHIEKLEN [CDC53] 2.28

Now give it for ILEVGALASIQTFNFDS [RPN12] too. 2.86

Now give it for CITLDQLAVRAPKGQNT [RPL18A] too. 3.38

Now give it for VDASPNDVTRRTVKNIL [CSL4] too. 3.3

Now give it for VREFLEKNYDRKEPPAT [PRE6] too. 3.3

Now give it for RSGSNAAASLPSKKLKT [RPC82] too. 2.76

Now give it for DEGGAKSLLLNTLNIDN [BRN1] too. 3.38

Now give it for GGQIAHILFQNNPDMMI [ROX3] too. 2.97

Now give it for KPLADLRPLFTRYELYI [YLR335W/NUP2] too. 2.02

Now give it for GRICRPLIIVSDGQSRV [RET1] too. 2.16

Now give it for TLSLPDSQDYILSINAI [SMC1] too. 2.87

Now give it for DAPFNKVVLKALFLSKI [RPL18A] too. 1.32

Now give it for ANEQLKLFNRIVERETN [CSN12] too. 2.81

Now give it for QNKLFYITNADDSTKFQ [SIR3] too. 3.27

Now give it for LSKMRDSVLQLASFEKT [RPO31] too. 3.01

Now give it for IILSIDEHHESFELKEE [RRP6] too. 2.98

Now give it for GAGGLNPFTSATSSTNA [YOR098C/NUP1] too. 2.94

Now give it for SAYEASMVYSNVGELIE [RRP4] too. 1.85

Now give it for LAYRNYWTQYLGLFIHK [YJL039C/NUP192] too. 2.02

Now give it for TRFEVELEFIQSLANIQ [SOH1] too. 2.5

Now give it for QELRKKVNPNIMNMIEN [SMC2] too. 2.47

Now give it for IKNLPADVSKLMYSITF [SRB2] too. 2.76

Now give it for DKRFSGSLKLPNCPRPN [RPL1A] too. 2.6

Now give it for FKYIYELILAGAIDEAL [YDL116W/NUP84] too. 1.52

Now give it for ALTTIKGVGRRYSNLVC [RPS18A] too. 2.62
